# system-under-test: Adenosine receptor A2a (Homo sapiens, UniProt P29274)
# Sequence (P29274 whole entry): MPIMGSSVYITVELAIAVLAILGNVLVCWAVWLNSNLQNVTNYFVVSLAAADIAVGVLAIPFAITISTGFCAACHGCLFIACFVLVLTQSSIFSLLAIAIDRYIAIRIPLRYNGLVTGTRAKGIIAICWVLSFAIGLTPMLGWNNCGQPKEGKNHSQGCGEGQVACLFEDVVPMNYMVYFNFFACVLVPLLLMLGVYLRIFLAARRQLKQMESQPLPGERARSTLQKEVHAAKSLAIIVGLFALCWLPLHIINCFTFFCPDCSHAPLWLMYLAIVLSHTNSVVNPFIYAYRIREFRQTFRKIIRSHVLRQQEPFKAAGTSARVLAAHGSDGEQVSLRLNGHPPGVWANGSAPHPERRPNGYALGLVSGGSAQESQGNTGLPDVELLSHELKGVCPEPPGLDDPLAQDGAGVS
# test-summary: Displacement of [3H]CGS21680 from human recombinant adenosine A2A receptor expressed in HEK293 cells at 10 uM after 60 mins by liquid scintillation counting
# Assay type: cell-based
inhibition overview

{"compound": "CNC(=O)[C@@]12C[C@@H]1[C@@H](n1cnc3c(NC)nc(C#Cc4ccc(Cl)cc4)nc31)[C@H](O)[C@@H]2O", "inhibition": "30%"}
{"compound": "CNC(=O)[C@@]12C[C@@H]1[C@@H](n1cnc3c(NC)nc(C#Cc4ccc(Br)cc4)nc31)[C@H](O)[C@@H]2O", "inhibition": "26%"}
{"compound": "CNC(=O)[C@@]12C[C@@H]1[C@@H](n1cnc3c(NC)nc(C#Cc4cccc(F)c4)nc31)[C@H](O)[C@@H]2O", "inhibition": "10%"}
{"compound": "CNC(=O)[C@@]12C[C@@H]1[C@@H](n1cnc3c(NCc4cccc(Cl)c4)nc(C#Cc4ccc(F)c(F)c4)nc31)[C@H](O)[C@@H]2O (single isomer, unassigned)", "inhibition": "41%"}
{"compound": "CNC(=O)[C@@]12C[C@@H]1[C@@H](n1cnc3c(NC)nc(C#Cc4ccccc4Cl)nc31)[C@H](O)[C@@H]2O", "inhibition": "30%"}
{"compound": "CNC(=O)[C@@]12C[C@@H]1[C@@H](n1cnc3c(NC)nc(C#Cc4ccccn4)nc31)[C@H](O)[C@@H]2O", "inhibition": "13%"}
{"compound": "CNC(=O)[C@@]12C[C@@H]1[C@@H](n1cnc3c(NC)nc(C#Cc4ccccc4F)nc31)[C@H](O)[C@@H]2O", "inhibition": "17%"}

---

# system-under-test: UniProtKB P30542
# Sequence (P30542 whole entry): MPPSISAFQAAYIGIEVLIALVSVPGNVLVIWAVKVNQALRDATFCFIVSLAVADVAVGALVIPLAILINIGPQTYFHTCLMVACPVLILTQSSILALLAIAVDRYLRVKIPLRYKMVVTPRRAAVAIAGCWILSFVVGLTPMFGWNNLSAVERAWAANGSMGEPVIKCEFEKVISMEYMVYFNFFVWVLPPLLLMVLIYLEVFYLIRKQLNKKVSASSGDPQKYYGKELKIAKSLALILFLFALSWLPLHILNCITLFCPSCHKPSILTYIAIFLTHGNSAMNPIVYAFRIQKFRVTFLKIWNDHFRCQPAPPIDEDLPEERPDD
# test-summary: Displacement of [3H]R-PIA from human recombinant adenosine A1 receptor expressed in CHO cells at 10 uM after 60 mins by liquid scintillation counting
# Format: cell-based
endpoint-label: inhibition (%)

{"molecule": "CNC(=O)[C@@]12C[C@@H]1[C@@H](n1cnc3c(NC)nc(C#Cc4cc5ccccc5c5ccccc45)nc31)[C@H](O)[C@@H]2O", "endpoint-label": "inhibition", "result": 15}
{"molecule": "CNC(=O)[C@@]12C[C@@H]1[C@@H](n1cnc3c(NC)nc(C#Cc4cccc5ccccc45)nc31)[C@H](O)[C@@H]2O", "endpoint-label": "inhibition", "result": 25}
{"molecule": "CNC(=O)[C@@]12C[C@@H]1[C@@H](n1cnc3c(NC)nc(C#Cc4cccc(N)c4)nc31)[C@H](O)[C@@H]2O", "endpoint-label": "inhibition", "result": 10}
{"molecule": "CNC(=O)[C@@]12C[C@@H]1[C@@H](n1cnc3c(NCc4cccc(Cl)c4)nc(C#Cc4cccc(Cl)c4)nc31)[C@H](O)[C@@H]2O", "endpoint-label": "inhibition", "result": 4}
{"molecule": "CNC(=O)[C@@]12C[C@@H]1[C@@H](n1cnc3c(NC)nc(C#Cc4ccccc4F)nc31)[C@H](O)[C@@H]2O", "endpoint-label": "inhibition", "result": 21}
{"molecule": "CNC(=O)[C@@]12C[C@@H]1[C@@H](n1cnc3c(NC)nc(C#Cc4ccc(F)c(F)c4)nc31)[C@H](O)[C@@H]2O", "endpoint-label": "inhibition", "result": 6}
{"molecule": "CNC(=O)[C@@]12C[C@@H]1[C@@H](n1cnc3c(NCc4cccc(Cl)c4)nc(C#Cc4ccccc4)nc31)[C@H](O)[C@@H]2O", "endpoint-label": "inhibition", "result": 20}
{"molecule": "CNC(=O)[C@@]12C[C@@H]1[C@@H](n1cnc3c(NC)nc(C#Cc4ccc(-c5ccccc5)cc4)nc31)[C@H](O)[C@@H]2O", "endpoint-label": "inhibition", "result": 21}
{"molecule": "CNC(=O)[C@@]12C[C@@H]1[C@@H](n1cnc3c(NC)nc(C#Cc4cccc(F)c4)nc31)[C@H](O)[C@@H]2O", "endpoint-label": "inhibition", "result": 12}
{"molecule": "CNC(=O)[C@@]12C[C@@H]1[C@@H](n1cnc3c(NC)nc(C#Cc4ccc(C(C)=O)cc4)nc31)[C@H](O)[C@@H]2O", "endpoint-label": "inhibition", "result": 15}
{"molecule": "CNC(=O)[C@@]12C[C@@H]1[C@@H](n1cnc3c(NC)nc(C#Cc4ccccc4Cl)nc31)[C@H](O)[C@@H]2O", "endpoint-label": "inhibition", "result": 27}
{"molecule": "CNC(=O)[C@@]12C[C@@H]1[C@@H](n1cnc3c(NCc4cccc(Cl)c4)nc(C#Cc4cc5cccc6ccc7cccc4c7c65)nc31)[C@H](O)[C@@H]2O", "endpoint-label": "inhibition", "result": 11}
{"molecule": "CNC(=O)[C@@]12C[C@@H]1[C@@H](n1cnc3c(NCc4cccc(Cl)c4)nc(C#Cc4ccc(F)c(F)c4)nc31)[C@H](O)[C@@H]2O (single isomer, unassigned)", "endpoint-label": "inhibition", "result": 6}
{"molecule": "CNC(=O)[C@@]12C[C@@H]1[C@@H](n1cnc3c(NC)nc(C#Cc4cccc(Cl)c4)nc31)[C@H](O)[C@@H]2O", "endpoint-label": "inhibition", "result": 10}

---

# system-under-test: Adenosine receptor A2a (Mus musculus)
# test-summary: Displacement of [3H]CGS21680 from mouse adenosine A2A receptor expressed in HEK293 cells at 10 uM after 60 mins by liquid scintillation counting
inhibition overview

{"molecular-string": "CNC(=O)[C@@]12C[C@@H]1[C@@H](n1cnc3c(NCc4cccc(Cl)c4)nc(C#Cc4ccc(F)cc4)nc31)[C@H](O)[C@@H]2O", "inhibition": "7%"}
{"molecular-string": "CNC(=O)[C@@]12C[C@@H]1[C@@H](n1cnc3c(NCc4cccc(Cl)c4)nc(C#Cc4ccc5ccc6cccc7ccc4c5c67)nc31)[C@H](O)[C@@H]2O", "inhibition": "64%"}
{"molecular-string": "CNC(=O)[C@@]12C[C@@H]1[C@@H](n1cnc3c(NCc4cccc(Cl)c4)nc(C#Cc4cccc(C(=O)O)c4)nc31)[C@H](O)[C@@H]2O", "inhibition": "22%"}
{"molecular-string": "CNC(=O)[C@@]12C[C@@H]1[C@@H](n1cnc3c(NC)nc(C#Cc4ccccc4Cl)nc31)[C@H](O)[C@@H]2O", "inhibition": "2%"}
{"molecular-string": "CNC(=O)[C@@]12C[C@@H]1[C@@H](n1cnc3c(NCc4cccc(Cl)c4)nc(C#Cc4ccccc4)nc31)[C@H](O)[C@@H]2O", "inhibition": "2%"}
{"molecular-string": "CNC(=O)[C@@]12C[C@@H]1[C@@H](n1cnc3c(NCc4cccc(Cl)c4)nc(C#Cc4ccc(N)cc4)nc31)[C@H](O)[C@@H]2O", "inhibition": "5%"}

---

# system-under-test: Adenosine receptor A3 (Homo sapiens) (UniProt P0DMS8)
# Sequence (whole entry): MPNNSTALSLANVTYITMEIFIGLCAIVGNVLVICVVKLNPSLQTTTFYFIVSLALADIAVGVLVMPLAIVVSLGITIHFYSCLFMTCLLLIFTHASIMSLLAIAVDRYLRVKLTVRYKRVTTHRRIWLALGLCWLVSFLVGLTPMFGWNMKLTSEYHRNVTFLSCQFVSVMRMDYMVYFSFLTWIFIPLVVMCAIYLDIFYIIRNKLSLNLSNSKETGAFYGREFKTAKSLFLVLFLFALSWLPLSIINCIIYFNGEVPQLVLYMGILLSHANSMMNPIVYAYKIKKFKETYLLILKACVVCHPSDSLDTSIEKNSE
# test-summary: Agonist activity at human recombinant adenosine A3 receptor expressed in CHO cells assessed as inhibition of forskolin-stimulated cAMP production at 10 uM incubated for 30 mins prior to forskolin-stimulation measured after 15 mins by enzyme immunoassay relative to NECA
# Format: functional, cell-based

{"molecular-string": "CNC(=O)[C@@]12C[C@@H]1[C@@H](n1cnc3c(NCc4cccc(Cl)c4)nc(C#Cc4ccccc4)nc31)[C@H](O)[C@@H]2O", "Efficacy / %": 101}
{"molecular-string": "CNC(=O)[C@@]12C[C@@H]1[C@@H](n1cnc3c(NC)nc(C#Cc4cc5ccccc5c5ccccc45)nc31)[C@H](O)[C@@H]2O", "Efficacy / %": 108}
{"molecular-string": "CNC(=O)[C@@]12C[C@@H]1[C@@H](n1cnc3c(NCc4cccc(Cl)c4)nc(C#Cc4cccc(Cl)c4)nc31)[C@H](O)[C@@H]2O", "Efficacy / %": 91.5}
{"molecular-string": "CNC(=O)[C@@]12C[C@@H]1[C@@H](n1cnc3c(NC)nc(C#Cc4ccc(Cl)cc4)nc31)[C@H](O)[C@@H]2O", "Efficacy / %": 97.4}
{"molecular-string": "CNC(=O)[C@@]12C[C@@H]1[C@@H](n1cnc3c(NC)nc(C#Cc4ccc(C(C)=O)cc4)nc31)[C@H](O)[C@@H]2O", "Efficacy / %": 87.4}
{"molecular-string": "CNC(=O)[C@@]12C[C@@H]1[C@@H](n1cnc3c(NCc4cccc(Cl)c4)nc(C#Cc4cc5cccc6ccc7cccc4c7c65)nc31)[C@H](O)[C@@H]2O", "Efficacy / %": 97.1}
{"molecular-string": "CNC(=O)[C@@]12C[C@@H]1[C@@H](n1cnc3c(NC)nc(C#Cc4ccc(F)cc4)nc31)[C@H](O)[C@@H]2O", "Efficacy / %": 80.3}
